- MEASURED ON: T1, 4H446-AA
- T1 chain: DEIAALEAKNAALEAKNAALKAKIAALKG
- ASSAY TEXT: two-hybrid library CCmax;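 note: natural log of median RNA to DNA barcode read ratio; higher means stronger binding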
- CONDITION CONTEXT: mean of both orientations
READOUT KIND: interaction score

Some binders with known interaction score results, for comparison:
DKNAALKAKIAALKAEIAALKAENAALEG [4H3915-AA]; -1.7
DKIAALKAENAALEAEIAALKAENAALEG [4H2699-AA]; -1.2
DEIAALEAENAALEAEIAALEAKIAALEG [4H133-AA]; 0.854

[1] DKNAALKAKIAALKAKIAALEAENAALEG [4H3939-AA]
[2] DKNAALKAKNAALEAEIAALEAEIAALEG [4H3969-AA]
[3] DKIAALKAEIAALEAENAALEAENAALKG [4H2580-AA]
Incoming: Arrange these 3 binders in increasing order of interaction score. Write the labels, ordered according to the request.
Outgoing: 3, 1, 2
(3: -1.11, 1: -0.459, 2: 1.05)
